Tested on: RD
Assay: Cytotoxicity against human RD cells at 100 uM after 24 hrs by WST-1 assay relative to control
Assay type: cell-based
I'd be grateful if you could share measured Activity for these entries.
Give bare numbers, in %.

Example entries and their recorded answers appear below.
Compound: Cc1cc(C(=O)N[C@@H](Cc2ccc(F)cc2)C(=O)N[C@H](/C=C(\C#N)c2ccccn2)C[C@@H]2CCCNC2=O)no1
Property: Activity
Unit of measure: %
Experimental value: 100
--
Compound: Cc1cc(C(=O)N[C@@H](Cc2ccc(F)cc2)C(=O)N[C@H](CC(C#N)c2ccccn2)C[C@@H]2CCCNC2=O)no1 (mixture of isomers)
Property: Activity
Unit of measure: %
Experimental value: 50
--
Compound: CCOC(=O)C(Cl)=C[C@H](C[C@@H]1CCCNC1=O)NC(=O)[C@H](Cc1ccc(F)cc1)NC(=O)c1cc(C)on1
Property: Activity
Unit of measure: %
Experimental value: 100

Proceeding to the next compound to report its Activity.
Quick one: Activity for Cc1cc(C(=O)N[C@@H](Cc2ccc(F)cc2)C(=O)N[C@H](C=C(Br)C#N)C[C@@H]2CCCNC2=O)no1 ?
100

###

I'd be grateful if you could share measured inhibition for these entries.
Molecular target: Calpain-1 catalytic subunit (Homo sapiens) (UniProt P07384)
Sequence (P07384 whole entry): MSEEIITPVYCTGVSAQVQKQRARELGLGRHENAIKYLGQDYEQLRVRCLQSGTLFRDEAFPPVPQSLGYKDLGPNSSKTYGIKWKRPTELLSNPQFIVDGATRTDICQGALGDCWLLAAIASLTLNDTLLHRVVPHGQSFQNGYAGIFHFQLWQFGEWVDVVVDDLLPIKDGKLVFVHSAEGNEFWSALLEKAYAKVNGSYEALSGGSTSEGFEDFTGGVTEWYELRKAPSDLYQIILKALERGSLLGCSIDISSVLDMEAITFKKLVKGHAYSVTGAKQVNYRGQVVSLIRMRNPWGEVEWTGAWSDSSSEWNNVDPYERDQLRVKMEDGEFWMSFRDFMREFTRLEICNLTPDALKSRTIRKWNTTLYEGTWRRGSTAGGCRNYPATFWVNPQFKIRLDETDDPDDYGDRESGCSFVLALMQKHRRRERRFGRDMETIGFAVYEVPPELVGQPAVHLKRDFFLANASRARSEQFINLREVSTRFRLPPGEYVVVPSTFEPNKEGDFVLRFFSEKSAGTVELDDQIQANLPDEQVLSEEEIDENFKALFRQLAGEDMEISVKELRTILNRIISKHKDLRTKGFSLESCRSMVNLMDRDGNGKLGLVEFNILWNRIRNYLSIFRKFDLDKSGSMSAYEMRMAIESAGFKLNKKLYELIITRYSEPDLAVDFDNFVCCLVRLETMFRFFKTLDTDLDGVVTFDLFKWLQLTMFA
Assay: Inhibition of human Calpain1 at 50 uM using Ac-LLY-AFC as substrate preincubated for 5 mins followed by substrate addition and measured after 10 mins by fluorescence method relative to control

Molecular string: CNC(=O)/C(C#N)=C/[C@H](C[C@@H]1CCCNC1=O)NC(=O)[C@H](Cc1ccc(F)cc1)NC(=O)c1cc(C)on1
inhibition: < 50%

Molecular string: COC(=O)/C=C/[C@H](C[C@@H]1CCCNC1=O)NC(=O)[C@H](Cc1ccc(F)cc1)NC(=O)c1cc(C)on1
inhibition: < 50%

Quick one: inhibition for Cc1cc(C(=O)N[C@@H](Cc2ccc(F)cc2)C(=O)N[C@H](/C=C(\C#N)C(=O)N(C)C(=O)OC(C)(C)C)C[C@@H]2CCCNC2=O)no1 ?
< 50%

###

Biological target: Cathepsin K (Homo sapiens)
Test: Inhibition of human Cathepsin K at 50 uM using Ac-LR-AFC as substrate preincubated for 10 to 15 mins followed by substrate addition and measured for 30 to 60 mins by fluorescence method relative to control
Active and inactive are the calls of the source. No cut-off for these calls is given here.
Property: inhibition

Example entries and their recorded answers appear below.
Compound: COC(=O)C(Cl)=C[C@H](C[C@@H]1CCCNC1=O)NC(=O)[C@H](Cc1ccc(F)cc1)NC(=O)c1cc(C)on1
Property: inhibition
Experimental value: < 50%

Compound: Cc1cc(C(=O)N[C@@H](Cc2ccc(F)cc2)C(=O)N[C@H](/C=C(\C#N)C(=O)N(C)C(=O)OC(C)(C)C)C[C@@H]2CCCNC2=O)no1
Property: inhibition
Experimental value: < 50%

Compound: Cc1cc(C(=O)N[C@@H](Cc2ccc(F)cc2)C(=O)N[C@H](C=O)C[C@@H]2CCCNC2=O)no1
Property: inhibition
Experimental value: Active

Compound: COC(=O)/C=C/[C@H](C[C@@H]1CCCNC1=O)NC(=O)[C@H](Cc1ccc(F)cc1)NC(=O)c1cc(C)on1
Property: inhibition
Experimental value: < 50%

Compound: Cc1cc(C(=O)N[C@@H](Cc2ccc(F)cc2)C(=O)N[C@H](/C=C(\C#N)c2ccsc2)C[C@@H]2CCCNC2=O)no1
Property: inhibition
Experimental value: < 50%

Compound: Cc1cc(C(=O)N[C@@H](Cc2ccc(F)cc2)C(=O)N[C@H](/C=C(\C#N)c2ccccn2)C[C@@H]2CCCNC2=O)no1
Property: inhibition
Experimental value: 65%

Compound: COC(=O)/C(C#N)=C/[C@H](C[C@@H]1CCCNC1=O)NC(=O)[C@H](Cc1ccc(F)cc1)NC(=O)c1cc(C)on1
Property: inhibition
Experimental value: < 50%

Compound: CNC(=O)/C(C#N)=C/[C@H](C[C@@H]1CCCNC1=O)NC(=O)[C@H](Cc1ccc(F)cc1)NC(=O)c1cc(C)on1
Property: inhibition
Experimental value: < 50%

Proceeding to the next compound to report its inhibition.
Enter reported inhibition observed with Cathepsin K (Homo sapiens) for Cc1cc(C(=O)N[C@@H](Cc2ccc(F)cc2)C(=O)N[C@@H](C[C@@H]2CCCNC2=O)C(O)C#N)no1 (some centres undefined)
Active

###

System: RD
Assay: Cytotoxicity against human RD cells at 100 uM after 24 hrs by WST-1 assay relative to control
Type: cell-based
Property: Activity (%)
Numbers only, in %.

Example entries and their recorded answers appear below.
Molecular string: CCOC(=O)C(Br)=C[C@H](C[C@@H]1CCCNC1=O)NC(=O)[C@H](Cc1ccc(F)cc1)NC(=O)c1cc(C)on1
Experimental value: 100
//
Molecular string: COC(=O)C(Cl)=C[C@H](C[C@@H]1CCCNC1=O)NC(=O)[C@H](Cc1ccc(F)cc1)NC(=O)c1cc(C)on1
Experimental value: 100
//
Molecular string: Cc1cc(C(=O)N[C@@H](Cc2ccc(F)cc2)C(=O)N[C@H](/C=C(/C#N)c2ccccn2)C[C@@H]2CCCNC2=O)no1
Experimental value: 90
//
Molecular string: Cc1cc(C(=O)N[C@@H](Cc2ccc(F)cc2)C(=O)N[C@H](/C=C(\C#N)c2ccc(C(F)(F)F)cc2)C[C@@H]2CCCNC2=O)no1
Experimental value: 100
//
Molecular string: COC(=O)C(Br)=C[C@H](C[C@@H]1CCCNC1=O)NC(=O)[C@H](Cc1ccc(F)cc1)NC(=O)c1cc(C)on1
Experimental value: 100

Proceeding to the next compound to report its Activity.
Quick one: Activity for Cc1cc(C(=O)N[C@@H](Cc2ccc(F)cc2)C(=O)N[C@H](C=C(Cl)C#N)C[C@@H]2CCCNC2=O)no1 ?
100

###

Test: Inhibition of Enterovirus 71 E2004104-TW-CDC protease 3C (1549 to 1731 residues) expressed in Escherichia coli BL21(DE3) cells using Dacyl-KRTATVQGPSLDFE-Edans as substrate by fluorescence method
Design: species or system Enterovirus A71
Property: pIC50
Give bare numbers, as −log10 of the molar value.

Quick one: pIC50 for CCOC(=O)/C=C/[C@H](C[C@@H]1CCNC1=O)NC(=O)[C@@H](CC(=O)[C@@H](NC(=O)c1cc(C)on1)C(C)C)Cc1ccc(F)cc1 ?
5.80

###

Test system: Enterovirus A71
Experiment: Reversible inhibition of Enterovirus 71 3C protease assessed as recovery of enzyme activity at 10 to 20 equivalent using peptide substrate pre-incubated for 1 hr followed by dilution prior to substrate addition using ultra-filtered sample relative to control
Calls of active or inactive are those of the source. The calls are words filed in the database; no cut-off is given here.
Property: Activity

Molecular string: Cc1cc(C(=O)N[C@@H](Cc2ccc(F)cc2)C(=O)N[C@H](/C=C(\C#N)C(=O)N(C)C(=O)OC(C)(C)C)C[C@@H]2CCCNC2=O)no1
Tgt: Enterovirus A71
Experimental value: Active

Molecular string: CNC(=O)/C(C#N)=C/[C@H](C[C@@H]1CCCNC1=O)NC(=O)[C@H](Cc1ccc(F)cc1)NC(=O)c1cc(C)on1
Tgt: Enterovirus A71
Experimental value: Active

Molecular string: COC(=O)/C(C#N)=C/[C@H](C[C@@H]1CCCNC1=O)NC(=O)[C@H](Cc1ccc(F)cc1)NC(=O)c1cc(C)on1
Tgt: Enterovirus A71
Experimental value: 65 to 85%

Molecular string: Cc1cc(C(=O)N[C@@H](Cc2ccc(F)cc2)C(=O)N[C@H](/C=C(\C#N)C(=O)OC(C)(C)C)C[C@@H]2CCCNC2=O)no1
Tgt: Enterovirus A71
Experimental value: 65 to 85%
